Entry source: the supplement of paper PMC10567573

Provide the recorded protein stability index for the entries that follow.
B1: GOLPH3 (parent)
chain: FAPLLDEQYDLATKRVRQLLDLDP

# Variants of: B1
# MEASUREMENT_PROTOCOL: protein stability index of a GFP-peptide fusion (GPS, HEK-293T) (PSI 1-6); higher = more stable;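 further: lentivirally expressed fusions sorted by FACS into six bins by GFP to DsRed ratio, PSI derived from sequencing read proportions per bin multiplied by bin number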
# ASSAY_CONTEXT: c terminus: a fixed tail appended

Query :: In one line, give reported protein stability index of the entry `K14L` .
Result :: 3.14

Query :: In one line, give reported protein stability index of the entry `L22T` .
Result :: 2.21

Query :: Supply recorded protein stability index for `Y9Q` here.
Result :: 2.64

Query :: # return recorded protein stability index for entry `K14P`
Result :: 2.29

Query :: Look up and state reported protein stability index for `Y9H`
Result :: 2.49

Query :: Specify protein stability index for `L22M` and stop.
Result :: 2.58

Query :: Could you please provide reported protein stability index for `V16M` ? Thanks!
Result :: 1.96

Query :: Please supply the value of reported protein stability index for the item `K14N`
Result :: 2.02

Query :: Give the value of protein stability index reported for the following: `L5T`
Result :: 1.95

Query :: Give protein stability index for `V16P`
Result :: 2.45

Query :: State its protein stability index for this variant: `D6Q`
Result :: 1.42

Query :: Please supply the value of reported protein stability index for the item `D6V`
Result :: 1.75

Query :: Retrieve protein stability index measured for `R17N` and print it.
Result :: 2.83

Query :: Read off the recorded protein stability index for `T13M`
Result :: 1.89

Query :: Return protein stability index (reported value) for this variant: `R15E`
Result :: 2.43

Query :: Give the reported protein stability index for this variant. `Y9E`
Result :: 3.5

Query :: Quick one: give measured protein stability index for `R17H`
Result :: 1.87

Query :: Provide only the value of recorded protein stability index for `Y9V`
Result :: 1.24

Query :: Identify measured protein stability index associated with `Q8T`
Result :: 2.64

Query :: Give the measured protein stability index for `Y9T`
Result :: 2.45

Query :: Please report the measured protein stability index for `L4D`
Result :: 3.39

Query :: Supply protein stability index value. Item: `L22G`
Result :: 2.58

Query :: Look up and state reported protein stability index for `D23H`
Result :: 1.69

Query :: Item `R17V` : provide protein stability index
Result :: 2.03

Query :: State its protein stability index: `D23R`
Result :: 2.72

Query :: Let me know recorded protein stability index for `Q8F` , thanks.
Result :: 1.5

Query :: Query protein stability index for `E7K`
Result :: 1.87

Query :: Note protein stability index for the variant shown: `Y9M`
Result :: 2.46

Query :: Report protein stability index for `E7I`
Result :: 1.65

Query :: Note down protein stability index recorded for `P24N`
Result :: 2.46

Query :: Query protein stability index for `D23I`
Result :: 1.62

Query :: Please report the measured protein stability index for `V16S`
Result :: 1.74

Query :: Entry `D10G` needs its protein stability index filled in; supply it.
Result :: 2.15

Query :: Identify protein stability index associated with the variant `L11F`
Result :: 1.94

Query :: Supply recorded protein stability index for `A12D` here.
Result :: 2.72

Query :: Name the recorded protein stability index of the variant listed here: `T13H`
Result :: 2.18

Query :: Indicate the recorded protein stability index value for this variant: `Y9L`
Result :: 2.15

Query :: Dear colleague, please send me the reported protein stability index for `L11A` when you can.
Result :: 3.3

Query :: Look up protein stability index of `D23Y` and report it.
Result :: 2.12

Query :: Output protein stability index of `L20I`
Result :: 2.59

Query :: Identify the reported protein stability index for the following entry. `L5I`
Result :: 1.78

Query :: // fetch protein stability index given entry `D10E`
Result :: 2.36

Query :: Assign protein stability index to the following record: `L11N`
Result :: 2.28

Query :: // fetch protein stability index given entry `L19N`
Result :: 1.89

Query :: Provide protein stability index value for the following variant: `F1Y`
Result :: 2.39

Query :: Recall and state the measured protein stability index for `L22E` .
Result :: 3.16
